From: paper PMC3817407

Target: T1, ECF22_1147
T1 chain: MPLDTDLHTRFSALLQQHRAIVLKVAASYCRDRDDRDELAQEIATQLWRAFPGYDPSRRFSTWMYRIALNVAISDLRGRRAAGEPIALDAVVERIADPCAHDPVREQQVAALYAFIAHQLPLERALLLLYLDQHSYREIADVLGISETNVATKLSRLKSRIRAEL
VALUE_KIND: fold repression

{"BINDER": "AS15_524 (protein) MNFGVEDMIEHVPMEDKRKGAAALDEARLRQQAIGVKLRQMFDEVVNEPVPDEFLAILRKAERPAGGE", "RECORDED_MEASUREMENT": 6.96}
{"BINDER": "AS25_1645 (protein) MNESFSQRQTDGDRRRGGDLEMKKNHTSHQHHTDSETPMGHNFEQFQRLSAYFDGEATPAERKEIQHLLDTDPQVKQQYQQLRQLKQALQLLPIPTSISAQYLGQRVLARLRRSQLRTLSLWGSGAIAALFVAGVMGQMPRLNFDRFAKNDPDQQPTAALVETSPQGEEALVVALNRPVLQIPKLATTESP", "RECORDED_MEASUREMENT": 7.04}
